- Assay system: cloned hTRPM8 channel (Homo sapiens (Human))
- Sequence (Q7Z2W7 whole entry): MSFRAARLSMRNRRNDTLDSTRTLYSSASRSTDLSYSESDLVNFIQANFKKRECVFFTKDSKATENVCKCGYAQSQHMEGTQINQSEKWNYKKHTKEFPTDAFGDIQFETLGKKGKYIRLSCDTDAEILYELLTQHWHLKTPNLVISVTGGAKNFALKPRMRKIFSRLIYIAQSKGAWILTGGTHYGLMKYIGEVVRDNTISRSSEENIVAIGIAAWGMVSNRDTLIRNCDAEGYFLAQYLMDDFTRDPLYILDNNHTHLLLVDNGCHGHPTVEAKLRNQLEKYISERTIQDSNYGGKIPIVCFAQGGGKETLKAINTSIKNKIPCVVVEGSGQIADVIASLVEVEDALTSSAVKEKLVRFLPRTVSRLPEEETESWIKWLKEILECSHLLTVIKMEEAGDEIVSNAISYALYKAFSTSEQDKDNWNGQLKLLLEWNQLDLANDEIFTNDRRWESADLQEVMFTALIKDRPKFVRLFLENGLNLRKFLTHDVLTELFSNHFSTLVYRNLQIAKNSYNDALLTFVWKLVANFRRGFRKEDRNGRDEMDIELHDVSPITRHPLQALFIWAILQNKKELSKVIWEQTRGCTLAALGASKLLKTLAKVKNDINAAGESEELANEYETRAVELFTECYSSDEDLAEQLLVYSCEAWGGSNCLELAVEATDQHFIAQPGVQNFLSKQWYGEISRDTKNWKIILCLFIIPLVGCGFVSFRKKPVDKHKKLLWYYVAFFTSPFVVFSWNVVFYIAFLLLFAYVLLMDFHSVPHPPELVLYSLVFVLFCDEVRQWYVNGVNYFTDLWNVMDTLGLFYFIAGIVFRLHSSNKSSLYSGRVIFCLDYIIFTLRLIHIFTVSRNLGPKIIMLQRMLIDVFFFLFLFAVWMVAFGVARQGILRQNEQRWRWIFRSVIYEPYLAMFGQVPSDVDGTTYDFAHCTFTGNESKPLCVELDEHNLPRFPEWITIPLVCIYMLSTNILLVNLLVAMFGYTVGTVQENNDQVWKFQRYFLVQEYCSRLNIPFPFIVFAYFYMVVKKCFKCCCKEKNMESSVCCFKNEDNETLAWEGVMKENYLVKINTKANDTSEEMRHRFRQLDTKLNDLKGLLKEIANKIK
- Protocol description: TRPM8 agonist activity, Fluo-8 calcium FLIPR assay (ChanTest)
- Format: cell-based
- Condition: Table 8; DIPA-1-7 = 1
# TRPM8 Relative Potency values compiled below
# respond with the number and nothing more

These solved cases illustrate the format of a correct answer.
[in] Return reported TRPM8 Relative Potency. Input molecule: CCCCCCCP(=O)(C(C)CC)C(C)CC (stereo not shown) [DAPA-2-7, 1-Di(sec-butyl)-phosphinoyl-heptane]
[out] 0.64

[in] Return reported TRPM8 Relative Potency. Input molecule: CCCCCCCCP(=O)(C(C)CC)C(C)CC (stereo not shown) [DAPA-2-8, 1-Di(sec-butyl)-phosphinoyl-octane]
[out] 0.71

[in] Return reported TRPM8 Relative Potency. Input molecule: CCCCCCP(=O)(C(C)CC)C(C)CC (stereo not shown) [DAPA-2-6, 1-Di(sec-butyl)-phosphinoyl-hexane]
[out] 0.87

---
[in] Return reported TRPM8 Relative Potency. Input molecule: CCCCCCCP(=O)(C(C)C)C(C)C [DIPA-1-7, 1-Di(isopropyl)-phosphinoyl-heptane]
[out] 1

----------
- Protocol description: Water solubility of 1-dialkylphosphorylalkanes
- Format: physicochemical
- Condition: water
Attribute measured: solubility (mg/mL)
The figure you give is taken to be in mg/mL; do not add the unit.

[in] Return reported solubility. Input compound: CCCCCCP(=O)(C(C)CC)C(C)CC (centres unmarked) [DAPA-2-6, 1-Di(sec-butyl)-phosphinoyl-hexane]
[out] 8

---
[in] Return reported solubility. Input compound: `CCCCCCC[P@@](=O)(C(C)C)[C@@H](C)CC`
[out] 20

----------
# Relative Potency to L-menthol values compiled below
- Assay system: cloned hTRPM8 channel (Homo sapiens (Human))
- Protocol description: TRPM8 agonist activity, Fluo-8 calcium FLIPR assay (ChanTest)
- Type: cell-based
- Condition: L-menthol = 1.0
# respond with the number and nothing more

These solved cases illustrate the format of a correct answer.
[in] Return reported Relative Potency to L-menthol. Input compound: `CCCCCCCP(=O)(C(C)C)C(C)C`
[out] 5.4

[in] Return reported Relative Potency to L-menthol. Input compound: CCCCCCCP(=O)(C(C)CC)C(C)CC (centres unmarked) [DAPA-2-7, 1-Di(sec-butyl)-phosphinoyl-heptane]
[out] 3.4

[in] Return reported Relative Potency to L-menthol. Input compound: `CCCCCCP(=O)(C(C)C)C(C)C`
[out] 1.6

[in] Return reported Relative Potency to L-menthol. Input compound: CCCCCP(=O)(C(C)CC)C(C)CC (centres unmarked)
[out] 2.2

[in] Return reported Relative Potency to L-menthol. Input compound: `CCCCCP(=O)(C(C)C)C(C)C`
[out] 0.7

[in] Return reported Relative Potency to L-menthol. Input compound: `CCCCCCCCP(=O)(C(C)C)C(C)C`
[out] 5.4

[in] Return reported Relative Potency to L-menthol. Input compound: `CCCCCCCCCP(=O)(C(C)C)C(C)C`
[out] 4.0

Pending compound:
[in] Return reported Relative Potency to L-menthol. Input compound: CCC(C)P(=O)(CCC(C)C)C(C)CC (centres unmarked)
[out] 0.9

----------
- Assay system: UniProtKB Q7Z2W7
- Protocol description: TRPM8 agonist activity, Fluo-8 calcium FLIPR assay (ChanTest)
- Assay type: cell-based
- Condition: L-menthol = 1.0
# Relative Potency to L-menthol values compiled below
# respond with the number and nothing more

These solved cases illustrate the format of a correct answer.
[in] Return reported Relative Potency to L-menthol. Input compound: CCCCCCP(=O)(C(C)CC)C(C)CC (stereo not shown) [DAPA-2-6, 1-Di(sec-butyl)-phosphinoyl-hexane]
[out] 4.7

[in] Return reported Relative Potency to L-menthol. Input compound: CCCCP(=O)(C(C)CC)C(C)CC (stereo not shown) [DAPA-2-4, 1-Di(sec-butyl)-phosphinoyl-butane]
[out] 0.3

[in] Return reported Relative Potency to L-menthol. Input compound: CCCCCCCCP(=O)(C(C)CC)C(C)CC (stereo not shown) [DAPA-2-8, 1-Di(sec-butyl)-phosphinoyl-octane]
[out] 2.9

Pending compound:
[in] Return reported Relative Potency to L-menthol. Input compound: `CCCCCP(=O)(CC(C)C)CC(C)C`
[out] 0.2

----------
- Test system: acid-induced swallowing movements
- Protocol description: Suppression of acid-induced swallowing movements in the anesthetized rat
- Format: in vivo
- Condition: anesthetized rat
- Text: A principal endogenous irritant in the linings of the upper aerodigestive tract is hydrochloric acid. Acid stimulations of the mucosa of the pharynx will elicit reflex swallowing. […] In a rat animal model, solutions of organic acids such as acetic acid and citric acid were effective in eliciting swallowing [Kajii et al., Sour taste stimulation facilitates reflex swallowing from the pharynx and larynx in the rat Physiology & Behavior 77: 321-325, 2002]. […]
# EC50 values compiled below
The figure you give is taken to be in µg/mL; do not add the unit.

These solved cases illustrate the format of a correct answer.
[in] Return reported EC50. Input compound: CCCCCCCP(=O)(C(C)CC)C(C)CC (stereo not shown) [DAPA-2-7, 1-Di(sec-butyl)-phosphinoyl-heptane]
[out] 200

[in] Return reported EC50. Input compound: CCCCCCCCP(=O)(C(C)CC)C(C)CC (stereo not shown) [DAPA-2-8, 1-Di(sec-butyl)-phosphinoyl-octane]
[out] 560

[in] Return reported EC50. Input compound: CCCCCCCP(=O)(C(C)C)C(C)C [DIPA-1-7, 1-Di(isopropyl)-phosphinoyl-heptane]
[out] 820

Pending compound:
[in] Return reported EC50. Input compound: CCCCCCP(=O)(C(C)CC)C(C)CC (stereo not shown) [DAPA-2-6, 1-Di(sec-butyl)-phosphinoyl-hexane]
[out] 1700

----------
- Protocol description: Water solubility of 1-dialkylphosphorylalkanes
- Format: physicochemical
- Condition: water
- Source text: The DIPA compounds are colorless liquids with a density less than water. These structures differ from those described by Rowsell and Spring U.S. Pat. No. 4,070,496 because '496 structures have their “head” (phosphine oxide group) covered by larger, more lipophilic groups. […] The applicant synthesized these analogs (which are achiral, by contrast to the structures of '496 which are >95% chiral). […] This increased water-solublility is striking (Table 3). […]
Attribute measured: solubility

These solved cases illustrate the format of a correct answer.
[in] Return reported solubility. Input compound: `CCCCCCCP(=O)(C(C)C)C(C)C`
[out] > 300 mg/mL

[in] Return reported solubility. Input compound: CCCCCCCCP(=O)(C(C)CC)C(C)CC (stereo not drawn) [DAPA-2-8, 1-Di(sec-butyl)-phosphinoyl-octane]
[out] < 3 mg/mL

Pending compound:
[in] Return reported solubility. Input compound: `CCCCCCCCCP(=O)(C(C)C)C(C)C`
[out] > 300 mg/mL
